- studyTarget: BorH (uncultured bacterium)
- procedureText: Isothermal titration calorimetry, ligand into BorH
- Type: binding, uncultured soil actinomycetes
- experimentalParameters: cell BorH; read-out: KD (ITC, Table S3)
quantityName: Kd (µM)
Please reply with the bare figure in µM and do not write the unit itself.

**Q:** # get_value(readout='Kd', item= N[C@@H](Cc1c[nH]c2ccccc12)C(=O)O )
**A:** 435

---

- studyTarget: AbeH/Trp (uncultured bacterium, UniProt F6LWA5)
- Sequence (F6LWA5 entry or part of it): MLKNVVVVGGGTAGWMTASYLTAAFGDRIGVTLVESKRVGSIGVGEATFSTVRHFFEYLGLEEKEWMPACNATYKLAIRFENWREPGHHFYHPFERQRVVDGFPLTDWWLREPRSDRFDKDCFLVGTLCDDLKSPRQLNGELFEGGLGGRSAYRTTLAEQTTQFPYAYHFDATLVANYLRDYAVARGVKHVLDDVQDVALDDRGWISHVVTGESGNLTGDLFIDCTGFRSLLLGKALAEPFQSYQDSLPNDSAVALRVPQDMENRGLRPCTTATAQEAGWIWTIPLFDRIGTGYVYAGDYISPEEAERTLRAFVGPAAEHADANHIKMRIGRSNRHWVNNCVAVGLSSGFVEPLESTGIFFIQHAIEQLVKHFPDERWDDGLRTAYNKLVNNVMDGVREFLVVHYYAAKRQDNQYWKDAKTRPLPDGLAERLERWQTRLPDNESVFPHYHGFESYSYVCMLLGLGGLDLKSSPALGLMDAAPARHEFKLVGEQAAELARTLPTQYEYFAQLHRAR
- procedureText: FAD fluorescence quenching titration with AbeH preincubated with Trp
- Type: binding, uncultured soil actinomycetes
- experimentalParameters: AbeH/FAD KD, FAD fluorescence quenching (Figure S10 B), in the presence of 0.3 mM Trp
quantityName: pKd
Reminder that pKd means the negative base-10 logarithm of the concentration expressed in mol/L.

**Q:** Given Cc1cc2nc3c(=O)[nH]c(=O)nc-3n(C[C@H](O)[C@H](O)[C@H](O)COP(=O)(O)OP(=O)(O)OC[C@H]3O[C@@H](n4cnc5c(N)ncnc54)[C@H](O)[C@@H]3O)c2cc1C , state its recorded pKd.
**A:** 5.51

---

- studyTarget: BorH (uncultured bacterium, UniProt M9QSI0)
- Sequence (M9QSI0 1-529): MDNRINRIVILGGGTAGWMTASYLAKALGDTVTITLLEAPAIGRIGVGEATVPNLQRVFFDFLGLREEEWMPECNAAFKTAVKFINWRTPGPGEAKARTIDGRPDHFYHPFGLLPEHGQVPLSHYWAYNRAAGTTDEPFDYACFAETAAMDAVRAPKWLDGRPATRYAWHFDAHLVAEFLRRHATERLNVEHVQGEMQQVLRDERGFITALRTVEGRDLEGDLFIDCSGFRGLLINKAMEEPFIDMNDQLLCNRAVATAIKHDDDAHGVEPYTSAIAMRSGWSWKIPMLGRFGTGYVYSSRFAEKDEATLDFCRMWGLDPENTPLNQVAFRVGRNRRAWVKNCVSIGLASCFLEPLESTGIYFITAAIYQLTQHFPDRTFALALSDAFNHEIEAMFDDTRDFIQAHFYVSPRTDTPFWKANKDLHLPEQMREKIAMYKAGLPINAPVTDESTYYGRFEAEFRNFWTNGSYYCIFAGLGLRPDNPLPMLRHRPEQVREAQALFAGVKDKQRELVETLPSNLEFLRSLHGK
- procedureText: Isothermal titration calorimetry, ligand into BorH
- Type: binding, uncultured soil actinomycetes
- experimentalParameters: one-site model, n fixed to 1; read-out: KD for Trp/BorH, ITC
quantityName: pKd
Kindly note that pKd refers to -log10 of the concentration in mol/L and answer with the value alone.

**Q:** Sample N[C@@H](Cc1c[nH]c2ccccc12)C(=O)O [Tryptophan, L-tryptophan] — what was its pKd?
**A:** 3.40
